Target of assay: Human immunodeficiency virus type 1 reverse transcriptase (Human immunodeficiency virus 1)
Experimental protocol: Specificity index, ratio of IC50 for HIV1 reverse transcriptase-associated DNA polymerase-independent RNase H activity to IC50 for HIV1 reverse transcriptase-associated RNA-dependent DNA polymerase activity
Measure: Ratio IC50

1) O=C1Nc2ccccc2/C1=N/Nc1nc(-c2ccc(-c3ccccc3)cc2)cs1 ... 0.11
2) O=C1Nc2ccccc2/C1=N/Nc1nc(-c2ccc(Br)cc2)cs1 ... 0.18
3) COc1ccc(-c2csc(N/N=C3\C(=O)Nc4ccccc43)n2)cc1 ... 0.18
4) O=C1Nc2ccccc2/C1=N/Nc1nc(-c2ccc([N+](=O)[O-])cc2)cs1 ... 0.08
5) Cc1ccc(-c2csc(N/N=C3\C(=O)Nc4ccccc43)n2)cc1 ... 0.2
6) O=C1Nc2ccccc2/C1=N/Nc1nc(-c2ccc(F)cc2F)cs1 ... 0.14
7) O=C1Nc2ccccc2/C1=N/Nc1nc(-c2ccc(Cl)cc2)cs1 ... 0.53
8) O=C1Nc2ccccc2/C1=N/Nc1nc(-c2cccc([N+](=O)[O-])c2)cs1 ... 0.21
9) O=C1Nc2ccccc2/C1=N/Nc1nc(-c2ccc(O)c(O)c2)cs1 ... 3.5
10) O=C1Nc2ccccc2/C1=N/Nc1nc(-c2ccc(F)cc2)cs1 ... 0.26
11) O=C1Nc2ccccc2/C1=N/Nc1nc(-c2ccc(Cl)cc2Cl)cs1 ... 0.2
12) O=C1Nc2ccccc2/C1=N/Nc1nc(-c2ccccc2)cs1 ... 1.3

* * *

Target of assay: Human immunodeficiency virus type 1 reverse transcriptase (Human immunodeficiency virus 1, UniProt Q72547)
Experimental protocol: Inhibition of HIV1 reverse transcriptase-associated DNA polymerase-independent RNase H activity after 1 hr
pIC50: −log10 of the molar value.
Classification field: 1 = pIC50 at or over 5; 0 = pIC50 under 5.

1) O=C1Nc2ccccc2/C1=N/Nc1nc(-c2ccccc2)cs1 ... 0
2) O=C1Nc2ccccc2/C1=N/Nc1nc(-c2ccc(-c3ccccc3)cc2)cs1 ... 1
3) O=C1Nc2ccccc2/C1=N/Nc1nc(-c2ccc(O)c(O)c2)cs1 ... 1
4) O=C1Nc2ccccc2/C1=N/Nc1nc(-c2ccc(F)cc2)cs1 ... 1
5) O=C1Nc2ccccc2/C1=N/Nc1nc(-c2cccc([N+](=O)[O-])c2)cs1 ... 1
6) COc1ccc(-c2csc(N/N=C3\C(=O)Nc4ccccc43)n2)cc1 ... 1
7) O=C1Nc2ccccc2/C1=N/Nc1nc(-c2ccc(Cl)cc2Cl)cs1 ... 1
8) O=C1Nc2ccccc2/C1=N/Nc1nc(-c2ccc(F)cc2F)cs1 ... 1
9) O=C1Nc2ccccc2/C1=N/Nc1nc(-c2ccc(Br)cc2)cs1 ... 0
10) O=C1Nc2ccccc2/C1=N/Nc1nc(-c2ccc([N+](=O)[O-])cc2)cs1 ... 1

* * *

Target of assay: Human immunodeficiency virus type 1 reverse transcriptase (Human immunodeficiency virus 1, UniProt Q72547, Y181C)
pIC50: −log10 of the molar value.
Measure: pIC50

1) O=C1Nc2ccccc2/C1=N/Nc1nc(-c2ccc(-c3ccccc3)cc2)cs1 ... 4.81

* * *

Target of assay: Human immunodeficiency virus type 1 reverse transcriptase (Human immunodeficiency virus 1, UniProt Q72547, K103N)
pIC50: −log10 of the molar value.
Measure: pIC50

1) O=C1Nc2ccccc2/C1=N/Nc1nc(-c2ccc(-c3ccccc3)cc2)cs1 ... 5.47
